tested on: LOX IMVI melanoma; assay: NCI tumour cell line growth inhibition, 48 h
Outcome measure: TGI

Recorded TGI of Cc1c(-c2nc(N)c(C#N)c(N)c2C#N)c(=O)oc2ccccc12 , please.
> 100 µM

Would you kindly share the measured TGI for COc1ccccc1NC(=O)C(=O)Cc1cnc2ccccc2n1 ?
> 100 µM

Given NS(=O)(=O)c1ccc(N=C2C(=O)Nc3ccccc32)cc1 , state its recorded TGI.
> 100 µM

Reported TGI, compound CC1=NC=C(O)c2ccccc2O1 : ____
> 100 µM

Which TGI is listed for NC(CO)c1ccc(OCc2ccccc2)cc1 (centres undefined) ?
> 100 µM

---

Below, each entry is listed with its recorded TGI.
test system: T-47D breast; test: NCI tumour cell line growth inhibition, 48 h

COCC12CCC(OC)C34C5CC6(O)C(OC)C=C(C5C6OC(=O)c5ccccc5)C(C(OC)C13)C4N(C)C2 (stereo not given)
> 100 µM

Proceed to the following item.
Quick check: TGI of CN1C(C)(C)CC(=O)C(Br)C1(C)C (stereo not given) ?
> 100 µM

---

tested on: TK-10 renal; assay: NCI tumour cell line growth inhibition, 48 h
Recorded TGI for the following molecules

In the examples that follow, each entry is paired with its recorded TGI.
C=CCC12CCC(=O)[C@@]1(C)CC=C(O)C2=O (stereo partly specified)
> 100 µM
NC1=NC2=C(CCCC2)C(c2cccs2)S1 (stereo unspecified)
> 100 µM
COc1ccc2c(c1)-c1nc(=O)n(CCCN(C)C)c3ccc([N+](=O)[O-])c(c13)N2
7.17 µM
O=C1C=CC(=O)N1c1ccc(I)cc1
30.3 µM
CC1(C)OC2C(CO)OC(n3ccc(N)nc3=O)C2O1 (stereo unspecified)
> 100 µM

Field: next molecule
Give the measured TGI of N#Cc1ccc(C(C2C(=O)NC(=O)NC2=O)C2C(=O)NC(=O)NC2=O)cc1 .
> 100 µM

---

# TGI per record follows
system: SF-295 CNS; experiment: NCI tumour cell line growth inhibition, 48 h

Use these answered entries as a reference point.
FC(F)(F)c1ccc(-c2ncc(-c3ccc(C(F)(F)F)cc3)c(NCc3cc(C(F)(F)F)cc(C(F)(F)F)c3)n2)cc1
28.3 µM
C/C(=N\O)C1CC2C=C(C#N)C1N(Cc1ccccc1)C2 (stereo unspecified)
> 100 µM
COC(=O)[C@H](COC(C)(C)C)NC(=O)N[C@H](C)c1ccccc1
> 100 µM
O=C(c1cccs1)c1nc2cc(Cl)ccc2[n+]([O-])c1C(F)(F)F
> 100 µM
CCCCCCCc1cscc1-c1cscc1Br
79.8 µM

Look up TGI for this molecule: CC(C)CC(NC=O)C(=O)NC(Cc1ccccc1)NC(=O)CNC(=O)C(C)NC(=O)C(N)Cc1ccc(O)cc1 (stereo unspecified)
> 100 µM

---

tested on: MALME-3M melanoma; experiment: NCI tumour cell line growth inhibition, 48 h
The entries below are paired with their reported TGI.

Cc1cc(=O)oc2cc(OC(=O)Nc3ccccc3)ccc12
> 100 µM

Recorded TGI for CC(=O)CC(=O)NC=O with MALME-3M melanoma, please?
> 100 µM

What is its TGI for MALME-3M melanoma? Entry: Nc1nc(N)c2ncn(-c3ccccc3)c2n1
> 100 µM

---

tested on: SK-MEL-28 melanoma; assay: NCI tumour cell line growth inhibition, 48 h
The entries below are paired with their reported TGI.

Consider the reported TGI for these molecules:
CC(C)CC(NC=O)C(=O)NC(Cc1ccccc1)NC(=O)CNC(=O)C(C)NC(=O)C(N)Cc1ccc(O)cc1 (centres undefined)
> 100 µM
CCCCCCCCCCCCCCCC(=O)Nc1ccn(C2CCC(COP(=O)(O)OCC3OC(n4cc(F)c(=O)[nH]c4=O)CC3OC(C)=O)O2)c(=O)n1 (centres undefined)
43.8 µM

Look up TGI for this molecule: CCC(C)CC(C)C(=O)c1c(O)ccn(O)c1=O (centres undefined)
> 100 µM

Reported TGI, molecule O=C(c1cccs1)c1nc2cc(Cl)ccc2[n+]([O-])c1C(F)(F)F : ____
> 100 µM

Record request: TGI value, item Cc1cc(=O)oc2cc(OC(=O)Nc3ccccc3)ccc12
> 100 µM

For the molecule shown here, O=C1CCSc2nc(-c3ccc4c(c3)OCO4)nn21 , give the reported TGI.
> 10 µM

Tell me the measured TGI of COc1ccc(/C=C/C(=O)c2ccc(Nc3nc(Nc4ccc(F)cc4)nc(Nc4ccc(Cl)cc4)n3)cc2)cc1 , please.
> 100 µM

---

tested on: NCI-H23 lung; assay: NCI tumour cell line growth inhibition, 48 h
// values below are reported TGI

Sample answers from the record:
O=C1/C(=C\c2ccccc2)CN(C(=O)c2ccccc2)C/C1=C\c1ccccc1
12.4 µM
CCc1nc2ccccc2c(=O)n1/N=C(\N=Nc1ccc(Cl)cc1)c1ccccc1
> 100 µM
C=C1c2[nH]c3ccccc3c2CC(C(=O)O)N1C(O)c1ccc(S(=O)(=O)O)cc1 (stereo not drawn)
> 100 µM
CCCCOC(=O)NC(Nc1ccc(S(=O)(=O)Nc2ncccn2)cc1)(C(F)(F)F)C(F)(F)F
> 100 µM
COC(=O)c1nc(C(=O)OC)c2c([nH]c3ccccc32)c1C(=O)OC
> 100 µM

For the molecule CCCCCCCc1cscc1-c1cscc1Br , what TGI is on record?
> 100 µM

Query (molecule): Cc1cccc(N=C/C=C(\Cl)c2ccc3ccccc3c2)c1 ; field requested: TGI
34.5 µM

Give the measured TGI of CCOC(=O)C1(C#N)C(C#N)(C#N)C1(C#N)C#N .
> 100 µM

Dear colleague, I am looking for the recorded TGI of the following molecule: C/C(=N\O)C1CC2C=C(C#N)C1N(Cc1ccccc1)C2 (stereo not drawn)
> 100 µM

Need TGI of CC(=O)N=c1ccc2nc(N)nn(O)c-2c1 , thanks.
> 100 µM

What value of measured TGI is listed for O=Cc1ccc(-c2ccc(-c3ccc(C=O)o3)[se]2)o1 ?
> 100 µM

Give the measured TGI of O=C(O)c1ccc(C(=O)O)c(C(=O)O)c1.[NH-]C1CCCCC1[NH-].[Pt+2] .
38.4 µM

---

# maps each entry to its TGI
system: HCT-15 colon; assay: NCI tumour cell line growth inhibition, 48 h

C/C1=C/C[C@@H](/C(C)=C/c2csc(C)n2)OC(=O)C[C@H](O)C(C)(C)C(=O)[C@H](C)[C@@H](O)[C@@H](C)CCC1
0.237 µM

Which TGI reading was recorded for the compound Nc1nc(Br)nc2ncn(C3CC(O)C(CO)O3)c12 (stereo unspecified) ?
> 100 µM

Suppose we examine the compound O=C(O)c1ccc(Oc2nc3ccccc3s2)cc1 ; what TGI value has been reported?
> 100 µM

Requested read-out: TGI. Entry: CC(=O)OCC1OC(OC(C)=O)C(Nc2ncc(-c3ccc(C)cc3)s2)C(OC(C)=O)C1OC(C)=O (stereo unspecified)
60 µM

What does the record list as TGI for CC[C@@H]1CC[C@@H]2[C@H](CC[C@]3(C)[C@@H](OC(C)=O)CC[C@@H]23)[C@H]1C(=O)OC ?
49.5 µM

---

# maps each entry to its TGI
system: HOP-62 NSCLC; assay: NCI tumour cell line growth inhibition, 48 h

COc1ccccc1N1C(=O)CSC1c1cc(OC)c(OC)c(OC)c1 (stereo unspecified)
> 100 µM

Record lookup: for HOP-62 NSCLC, what TGI belongs to Cc1cc2c(cc1C)[n+](=O)c(C(=O)CC(=O)C(=O)Nc1ccccc1C(C)C)c(C)n2[O-] ?
> 100 µM

Report TGI for O=Cc1ccc(-c2ccc(-c3ccc(C=O)o3)[se]2)o1 tested on HOP-62 NSCLC.
> 100 µM

Recall the recorded TGI for C=C(COC(C)=O)CC(/C=C(\C)CC/C=C(\C)CO)OC(C)=O (stereo unspecified) with HOP-62 NSCLC and state it.
> 100 µM

Checklist item: TGI tested on HOP-62 NSCLC, entry C=C1c2[nH]c3ccccc3c2CC(C(=O)O)N1C(O)c1ccc(S(=O)(=O)O)cc1 (stereo unspecified) , value?
> 100 µM

Form entry - test system: HOP-62 NSCLC; read-out: TGI; compound: CCCCN(CC)CCCCCCCCCCN1CCCc2cc(OC)ccc21
10.2 µM

---

tested on: NCI-H226 lung; experiment: NCI tumour cell line growth inhibition, 48 h
Outcome measure: TGI

Known TGI results, listed for orientation:
CCC1c2cc3n(c(=O)c2COC1O)Cc1c-3nc2ccccc2c1Cl (centres undefined)
> 100 µM
COc1ccc2c(c1)-c1nc(=O)n(CCCN(C)C)c3ccc([N+](=O)[O-])c(c13)N2
27.5 µM
CCCCCCCCCCCCCCCC(=O)Nc1ccn(C2CCC(COP(=O)(O)OCC3OC(n4cc(F)c(=O)[nH]c4=O)CC3OC(C)=O)O2)c(=O)n1 (centres undefined)
> 100 µM

What does the data say about its TGI? Entry: C=C1C(=O)c2cc3c(cc2C(c2cc(OC)c(OC)c(OC)c2)[C@@H]1C(=O)O)OCO3 (some centres undefined)
> 100 µM

Could you tell me which TGI is on file for Cc1cc(C)c(NC(=O)/C=C/c2ccccc2)c(C)c1 ?
> 100 µM

Fill in: TGI of CCN(CC)C(=S)N/N=C/c1cc(OC)ccc1O is ___
25.5 µM

So what's the measured TGI for this one? N#C/C(=C\c1ccc(F)cc1)n1nc2cccc(F)c2n1
> 100 µM

If you can, please state the reported TGI value of COc1ncc(-c2ccc3nccc(C#CCN4CCN(S(C)(=O)=O)CC4)c3c2)cc1NS(=O)(=O)c1ccc(F)cc1F .
2.27 µM

# TGI lookup, item CCCCCC#COC1CC(C)CC[C@@H]1C(C)C (some centres undefined)
> 100 µM

Item Cc1cccc2c1c(=O)c1c(O)cc3c(c1n2C)C=CC(C)(C)O3 has what recorded TGI?
> 100 µM

Query: TGI; subject: O=c1[nH]c(F)nc2c1ncn2C1OC(CO)C(O)C1O (centres undefined)
> 100 µM
